Experiment: Toxicity in human RBC assessed as hemolysis after 1 hr
Assay type: cell-based, Erythrocyte
Settings: human red blood cells (RBC)
PROPERTY NAME: log10 of HC50 at 1 h (log10 of the value in µg/mL)
Log scale reminder: HC50 at 1 h in µg/mL, then log10 taken.

MOL SMILES: CC(C)(C)c1ccc(NC(=O)CCN)c(-c2ccc(-c3cc(C(C)(C)C)ccc3NC(=O)CCN)nc2)c1.O=C(O)C(F)(F)F.O=C(O)C(F)(F)F
log10 of HC50 at 1 h: 1.59

MOL SMILES: CC(C)(C)c1ccc(NC(=O)CCN)c(-c2ccc(-c3cc(C(C)(C)C)ccc3NC(=O)CCN)nn2)c1.O=C(O)C(F)(F)F.O=C(O)C(F)(F)F
log10 of HC50 at 1 h: 1.92

Look up log10 of HC50 at 1 h of NCCC(=O)Nc1ccc(C(F)(F)F)cc1-c1ccc(-c2cc(C(F)(F)F)ccc2NC(=O)CCN)nn1.O=C(O)C(F)(F)F.O=C(O)C(F)(F)F and report it.
2.28

Report log10 of HC50 at 1 h for CC(C)(C)c1ccc(NC(=O)CCN)c(-c2ccc(-c3cc(C(C)(C)C)ccc3NC(=O)CCN)cc2)c1.O=C(O)C(F)(F)F.O=C(O)C(F)(F)F
0.81

Give the measured log10 of HC50 at 1 h for CC(C)(C)c1ccc(NC(=O)CCCCN)c(-c2ccc(-c3cc(C(C)(C)C)ccc3NC(=O)CCCCN)cc2)c1.O=C(O)C(F)(F)F.O=C(O)C(F)(F)F
1.54

Measured values drawn from ChEMBL document CHEMBL1765053 for this set.
